Target: human orexin-2 receptor (Homo sapiens (Human))
Assay: Intracellular calcium measurement (FLIPR), CHO cells expressing human orexin-2 receptor, 3 nM orexin-A
Format: cell-based
Conditions: CHO cells expressing human orexin-2 receptor, FLIPR, 3 nM orexin-A; geometric mean if determined several times; read-out: IC50 OX2
measured attribute: IC50 (nM)

{"columns": ["compound", "IC50 [nM]"],
 "data": [
  ["COc1ccc(C)cc1-c1nc([C@@H]2CCCN2C(=O)c2ccc(Cl)cc2-n2nccn2)no1 [compound 381]", 28]
]}

(P) Cc1ccc(C)c(-c2nc([C@@H]3CCCN3C(=O)c3ccc(C)cc3-n3nccn3)no2)c1 [compound 393]
(Q) Cc1cc(C(=O)N2CCC[C@H]2c2nc(-c3ccccc3C(F)(F)F)no2)c(-n2nccn2)cc1C [compound 181]
Ask: Which has the smaller recorded IC50, P or Q ? Selection: enter the item's label.
Result: P

---

Biological target: human orexin-2 receptor (Homo sapiens (Human), UniProt O43614)
Sequence (O43614 whole entry): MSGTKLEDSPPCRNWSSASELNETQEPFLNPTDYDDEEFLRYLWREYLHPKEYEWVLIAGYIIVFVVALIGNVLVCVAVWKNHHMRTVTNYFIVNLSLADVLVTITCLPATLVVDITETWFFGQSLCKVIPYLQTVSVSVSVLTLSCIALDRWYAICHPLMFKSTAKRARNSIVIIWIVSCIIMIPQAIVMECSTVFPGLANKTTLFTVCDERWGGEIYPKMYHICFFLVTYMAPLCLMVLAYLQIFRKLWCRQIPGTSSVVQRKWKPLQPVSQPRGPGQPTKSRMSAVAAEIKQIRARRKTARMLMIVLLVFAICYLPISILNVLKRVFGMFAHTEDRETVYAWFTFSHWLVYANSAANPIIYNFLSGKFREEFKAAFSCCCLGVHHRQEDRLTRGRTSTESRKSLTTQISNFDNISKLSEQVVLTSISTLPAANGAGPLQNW
Assay: Intracellular calcium measurement (FLIPR), CHO cells expressing human orexin-2 receptor, 3 nM orexin-A
Type: cell-based
Settings: CHO cells expressing human orexin-2 receptor, FLIPR, 3 nM orexin-A; geometric mean if determined several times; read-out: IC50 OX2
pIC50: −log10 of the molar value.
measured attribute: pIC50

{"columns": ["smiles string", "subject of test", "pIC50"],
 "data": [
  ["COc1cc(C(=O)N2CCC[C@H]2c2noc(-c3cc(C)ccc3OC)n2)c(-n2nccn2)cc1C", "human orexin-2 receptor (Homo sapiens (Human), UniProt O43614)", 8.52],
  ["Cc1cccc(-c2scnc2C(=O)N2CCC[C@H]2c2nnc(-c3ccccc3OC(F)(F)F)[nH]2)c1", "human orexin-2 receptor (Homo sapiens (Human), UniProt O43614)", 5.91],
  ["Cc1cccc(-c2ocnc2C(=O)N2CCC[C@H]2c2nc(-c3ccccc3OC(F)(F)F)no2)c1", "human orexin-2 receptor (Homo sapiens (Human), UniProt O43614)", 7.35],
  ["CCOc1c(F)cccc1-c1nc([C@@H]2CCCN2C(=O)c2cc(Cl)c(C)cc2-n2nccn2)no1", "human orexin-2 receptor (Homo sapiens (Human), UniProt O43614)", 8.52]
]}

(P) CCOc1ncccc1-c1noc([C@@H]2CCCN2C(=O)c2ccc(C)cc2-n2nccn2)n1
(Q) COc1cc(C)cc(-c2nc([C@@H]3CCCN3C(=O)c3cc(OC)c(C)cc3-n3nccn3)no2)c1
Ask: Which has the smaller recorded pIC50, P or Q ? Selection: enter the item's label.
Result: P
(P: 7.43, Q: 8.10)

---

Biological target: human orexin-2 receptor (Homo sapiens (Human), UniProt O43614)
Assay: Intracellular calcium measurement (FLIPR), CHO cells expressing human orexin-2 receptor, 3 nM orexin-A
Format: cell-based
Settings: CHO cells expressing human orexin-2 receptor, FLIPR, 3 nM orexin-A; geometric mean if determined several times; read-out: IC50 OX2
measured attribute: IC50 (nM)

(P) Cc1nc(C(=O)N2CCC[C@H]2c2nnc(-c3ccccc3OC(F)(F)F)o2)c(-c2cccc(F)c2)s1 [compound 443]
(Q) COc1cc(C(=O)N2CCC[C@H]2c2noc(-c3cccc(C)c3C)n2)c(-n2nccn2)cc1C [compound 403]
Ask: Returns: the argument ( P or Q ) having the larger IC50. Selection: enter the item's label.
Result: P

(I) COc1cc(C(=O)N2CCC[C@H]2c2nc(-c3ccccc3OC(F)(F)F)no2)c(-c2ncccn2)cc1C [compound 285]
(II) Cc1ccc(C(=O)N2CCC[C@H]2c2nc(-c3cccc(F)c3C)no2)c(-n2nccn2)c1 [compound 246]
(III) COc1cccc(-c2nc([C@@H]3CCCN3C(=O)c3ccc(C)cc3-n3nccn3)no2)c1C [compound 364]
(IV) Cc1cc(C(=O)N2CCC[C@H]2c2nc(-c3ccccc3OC(F)F)no2)c(-n2nccn2)cc1C [compound 188]
(V) Cc1cccc(-c2ocnc2C(=O)N2CCC[C@H]2c2nnc(-c3ccccc3OC(F)(F)F)[nH]2)c1 [compound 486]
Ask: // ascending sort on recorded IC50 Answer by naming the labels in the order asked.
Result: IV, II, I, III, V
(IV: 3 nM, II: 14 nM, I: 56 nM, III: 157 nM, V: 3130 nM)

(a) COc1cccc(-c2noc([C@@H]3CCCN3C(=O)c3cc(C)ccc3-n3nccn3)n2)c1OC [compound 59]
(b) COc1c(Cl)cccc1-c1nnc([C@@H]2CCCN2C(=O)c2ccc(C)cc2-n2nccn2)[nH]1 [compound 489]
Ask: Returns: the argument ( a or b ) having the larger IC50. Selection: enter the item's label.
Result: a
(a: 47 nM, b: 10 nM)

---

Target: orexin-1 (Homo sapiens (Human))
Assay: Intracellular calcium measurement (FLIPR), CHO cells expressing human orexin-1 receptor, 3 nM orexin-A
Type: cell-based
Conditions: CHO cells expressing human orexin-1 receptor, FLIPR, 3 nM orexin-A; geometric mean if determined several times; read-out: IC50 OX1
measured attribute: IC50 (nM)

{"columns": ["smiles string", "subject of test", "u", "IC50"],
 "data": [
  ["Cc1nc(C(=O)N2CCC[C@H]2c2nc(-c3cccc(Cl)c3C)no2)c(-c2cccc(F)c2)s1", "orexin-1 (Homo sapiens (Human))", "nM", 133]
]}

(a) Cc1ccc(-n2nccn2)c(C(=O)N2CCC[C@H]2c2nc(-c3c[nH]c4ncccc34)no2)c1
(b) COc1ccc(-c2ccccc2)c(C(=O)N2CCC[C@H]2c2nc(-c3cccc(Cl)c3C)no2)c1
(c) Cc1ccc(-n2nccn2)c(C(=O)N2CCC[C@H]2c2nc(-c3ccccc3C(F)(F)F)no2)c1
Ask: // ascending sort on recorded IC50 Answer by naming the labels in the order asked.
Result: b, a, c
(b: 9 nM, a: 131 nM, c: 249 nM)

---

Biological target: orexin-1 (Homo sapiens (Human), UniProt O43613)
Sequence (O43613 whole entry): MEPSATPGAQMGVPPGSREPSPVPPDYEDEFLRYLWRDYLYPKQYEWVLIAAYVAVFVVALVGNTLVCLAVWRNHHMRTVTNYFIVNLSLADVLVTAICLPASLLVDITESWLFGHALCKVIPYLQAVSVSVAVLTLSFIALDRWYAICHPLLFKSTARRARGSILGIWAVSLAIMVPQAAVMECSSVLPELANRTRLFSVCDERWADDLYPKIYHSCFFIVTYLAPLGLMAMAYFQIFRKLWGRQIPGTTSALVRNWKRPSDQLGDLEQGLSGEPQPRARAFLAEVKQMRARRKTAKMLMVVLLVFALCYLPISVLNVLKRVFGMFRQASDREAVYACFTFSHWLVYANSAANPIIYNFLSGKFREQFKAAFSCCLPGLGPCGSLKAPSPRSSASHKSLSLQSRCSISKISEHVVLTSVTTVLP
Assay: Intracellular calcium measurement (FLIPR), CHO cells expressing human orexin-1 receptor, 3 nM orexin-A
Assay type: cell-based
Settings: CHO cells expressing human orexin-1 receptor, FLIPR, 3 nM orexin-A; geometric mean if determined several times; read-out: IC50 OX1
Procedure: In Vitro Assay: Intracellular Calcium Measurements: […] Within the Fluorescent Imaging Plate Reader (FLIPR Tetra, Molecular Devices), antagonists are added to the plate in a volume of 10 μL/well, incubated for 120 min and finally 10 μL/well of agonist is added. Fluorescence is measured for each well at 1 second intervals, and the height of each fluorescence peak is compared to the height of the fluorescence peak induced by 3 nM orexin-A with vehicle in place of antagonist. […]
pIC50: −log10 of the molar value.
measured attribute: pIC50

{"columns": ["compound", "pIC50"],
 "data": [
  ["COc1cc(C(=O)N2CCC[C@H]2c2nc(-c3ccccc3OC)no2)c(-n2nccn2)cc1C [compound 231]", 7.18]
]}

(P) COc1ccccc1-c1noc([C@@H]2CCCN2C(=O)c2ccc(C)cc2-n2nccn2)n1 [compound 229]
(Q) COc1cccc(-c2cnc([C@@H]3CCCN3C(=O)c3cc(C)ccc3-n3nccn3)[nH]2)c1 [compound 524]
Ask: Which has the smaller recorded pIC50, P or Q ? Selection: enter the item's label.
Result: Q
(Q: 6.15, P: 6.79)

(I) Cc1cccc(-c2ocnc2C(=O)N2CCC[C@H]2c2nc(-c3ccccc3OC(F)(F)F)no2)c1 [compound 140]
(II) Cc1cccc(-c2nnc([C@@H]3CCCN3C(=O)c3cc(C)ccc3-n3nccn3)o2)c1 [Example 438]
Ask: Returns: the argument ( I or II ) having the larger pIC50. Selection: enter the item's label.
Result: I
(I: 7.00, II: 5.83)

(I) Cc1cc(C)cc(-c2cc([C@@H]3CCCN3C(=O)c3cc(C)ccc3-n3nccn3)on2)c1 [compound 423]
(II) Cc1ccc(-n2nccn2)c(C(=O)N2CCC[C@H]2c2nc(-c3cccc4[nH]ccc34)no2)c1 [compound 39]
(III) Cc1ccc(-n2nccn2)c(C(=O)N2CCC[C@H]2c2nc(-c3c[nH]c4cccc(C)c34)no2)c1 [compound 79]
(IV) COc1c(F)cccc1-c1noc([C@@H]2CCCN2C(=O)c2cc(C)cc(C)c2-n2nccn2)n1 [compound 192]
Ask: Rank entries according to their pIC50, from the largest number down. Answer by naming the labels in the order asked.
Result: I, IV, II, III
(I: 7.09, IV: 6.87, II: 6.18, III: 5.56)

---

Target: UniProt O43613
Assay: Intracellular calcium measurement (FLIPR), CHO cells expressing human orexin-1 receptor, 3 nM orexin-A
Format: cell-based
Conditions: CHO cells expressing human orexin-1 receptor, FLIPR, 3 nM orexin-A; geometric mean if determined several times; read-out: IC50 OX1
Description: In Vitro Assay: Intracellular Calcium Measurements: […] Within the Fluorescent Imaging Plate Reader (FLIPR Tetra, Molecular Devices), antagonists are added to the plate in a volume of 10 μL/well, incubated for 120 min and finally 10 μL/well of agonist is added. Fluorescence is measured for each well at 1 second intervals, and the height of each fluorescence peak is compared to the height of the fluorescence peak induced by 3 nM orexin-A with vehicle in place of antagonist. […]
pIC50: −log10 of the molar value.
measured attribute: pIC50

Reference set (3 entries):
{"columns": ["smiles string", "pIC50"],
 "data": [
  ["Cc1ccc(-n2nccn2)c(C(=O)N2CCC[C@H]2c2ncc(-c3ccccc3OC(F)(F)F)[nH]2)c1", 8.00],
  ["Cc1c(F)cccc1-c1noc([C@@H]2CCCN2C(=O)c2ccc(Cl)cc2-n2nccn2)n1", 6.81],
  ["COc1cc(C(=O)N2CCC[C@H]2c2nc(-c3cccc(F)c3OC)no2)c(-n2nccn2)cc1Cl", 7.36]
]}

(P) COc1cccc(F)c1-c1noc([C@@H]2CCCN2C(=O)c2cc(C)ccc2-n2nccn2)n1
(Q) CCOc1ncccc1-c1nc([C@@H]2CCCN2C(=O)c2cc(OC)c(C)cc2-n2nccn2)no1
(R) Cc1ccc(-n2nccn2)c(C(=O)N2CCC[C@H]2c2nc(-c3cccnc3OC(C)C)no2)c1
(S) COc1c(Cl)cccc1-c1nnc([C@@H]2CCCN2C(=O)c2ccc(C)cc2-n2nccn2)[nH]1
Ask: // ascending sort on recorded pIC50 Answer by naming the labels in the order asked.
Result: P, S, Q, R
